target: human Cot catalytic domain (30-397 amino acids) (Homo sapiens, UniProt P41279); construct: Purified recombinant human Cot catalytic domain (30-397 amino acids) was purchased from Cama Biosciences; purchased Cama Biosciences (so in the source); assay: High Throughput Cot Biochemical Assay (KinEASE TR-FRET); details: Cot KinEASE TR-FRET, 400 μM ATP; read-out: IC50 HTRF
Sequence (P41279 30-397): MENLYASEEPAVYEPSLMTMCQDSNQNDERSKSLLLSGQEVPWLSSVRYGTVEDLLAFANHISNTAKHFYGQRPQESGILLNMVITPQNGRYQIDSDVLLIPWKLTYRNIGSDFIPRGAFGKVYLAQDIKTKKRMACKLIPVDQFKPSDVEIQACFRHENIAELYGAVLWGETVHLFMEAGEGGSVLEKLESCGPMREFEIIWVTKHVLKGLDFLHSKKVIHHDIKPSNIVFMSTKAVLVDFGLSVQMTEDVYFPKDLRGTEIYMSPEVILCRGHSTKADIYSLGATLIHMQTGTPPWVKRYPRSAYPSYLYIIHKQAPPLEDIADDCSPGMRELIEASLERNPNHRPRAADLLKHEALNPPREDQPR
# if measured IC50 < 80 nM: yes (1)  # else: no (0)

Reference set, count: 5
• CC(C)(C)CNc1c(C#N)cnc2c(Cl)cc(N[C@@H](c3cccc(C4(C#N)CC4)c3)c3cn(C45CC(C4)C5)nn3)cc12 = yes (1)
• CC(C)(C)CNc1c(C#N)cnc2c(C#N)cc(N[C@H](c3cn(C4(CF)CC4)nn3)c3ccccc3Cl)cc12 = yes (1)
• CC(C)(C)CNc1c(C#N)cnc2c(F)cc(N[C@H](c3cn(C4CC4)nn3)c3ccccc3Cl)cc12 = yes (1)
• Cc1ccccc1[C@H](Nc1cc(Cl)c2ncc(C#N)c(NCC(C)(C)C)c2c1)c1cn(C2(C(F)(F)F)CC2)nn1 = no (0)
• Cc1ccccc1[C@H](Nc1cc(Cl)c2ncc(C#N)c(NCC(C)(C)C)c2c1)c1cn(C2(C(F)F)CC2)nn1 = yes (1)

Prompt line: Problem: For the compound CN(C)C(=O)c1cccc([C@H](Nc2cc(Cl)c3ncc(C#N)c(NCC(C)(C)C)c3c2)c2cn(C3(C(F)(F)F)CC3)nn2)c1F , is IC50 under 80 nM?
Response line: yes (1)

Prompt line: Problem: For the compound Cc1c([C@H](Nc2cc(Cl)c3ncc(C#N)c(NCC(C)(C)C)c3c2)c2cn(C3(C(F)(F)F)CC3)nn2)cccc1-n1cncn1 , is IC50 under 80 nM?
Response line: yes (1)

Prompt line: Problem: For the compound CCN1CCC(n2cc(C(Nc3ccc4ncc(C#N)c(Nc5ccc(F)c(Cl)c5)c4c3)c3ccc(F)cc3)nn2)CC1 (stereo not shown) [Example 827] , is IC50 under 80 nM?
Response line: yes (1)

Prompt line: Problem: For the compound CC(C)(CC(=O)O)n1cc([C@@H](Nc2cc(Cl)c3ncc(C#N)c(Nc4ccc(F)c(Cl)c4)c3c2)c2ccc(F)cc2)nn1 , is IC50 under 80 nM?
Response line: no (0)

Prompt line: Problem: For the compound CC1(C)C[C@H](n2cc([C@H](Nc3cc(Cl)c4ncc(C#N)c(Nc5ccc(F)c(Cl)c5)c4c3)c3ccccc3)nn2)CCN1 [Example 788] , is IC50 under 80 nM?
Response line: no (0)

Prompt line: Problem: For the compound CC(C)(C)CNc1c(C#N)cnc2c(Cl)cc(N[C@@H](c3ccccc3Cl)c3nnn(C4(C)CC4)c3F)cc12 , is IC50 under 80 nM?
Response line: no (0)

Prompt line: Problem: For the compound CC[C@@H](Nc1c(C#N)cnc2c(C#N)cc(N[C@@H](c3cccc(C(=O)N4CC(F)(F)C4)c3)c3cn(C4CC4)nn3)cc12)c1ccccc1 , is IC50 under 80 nM?
Response line: yes (1)

Prompt line: Problem: For the compound N#Cc1cnc2c(Cl)cc(NC(c3ccc(Cl)cc3)c3cn(C4CCN(C(=O)OCc5ccccc5)CC4)nn3)cc2c1Nc1ccc(F)c(Cl)c1 (stereo not shown) , is IC50 under 80 nM?
Response line: no (0)
